Some binders, each annotated with its measured pERK-HEK293-Beta-klotho without HSA [EC50 (nM)] Median Value.
Measurement Target: T1, human beta-Klotho (human, UniProt Q86Z14 1-1044)
T1 sequence (looked up): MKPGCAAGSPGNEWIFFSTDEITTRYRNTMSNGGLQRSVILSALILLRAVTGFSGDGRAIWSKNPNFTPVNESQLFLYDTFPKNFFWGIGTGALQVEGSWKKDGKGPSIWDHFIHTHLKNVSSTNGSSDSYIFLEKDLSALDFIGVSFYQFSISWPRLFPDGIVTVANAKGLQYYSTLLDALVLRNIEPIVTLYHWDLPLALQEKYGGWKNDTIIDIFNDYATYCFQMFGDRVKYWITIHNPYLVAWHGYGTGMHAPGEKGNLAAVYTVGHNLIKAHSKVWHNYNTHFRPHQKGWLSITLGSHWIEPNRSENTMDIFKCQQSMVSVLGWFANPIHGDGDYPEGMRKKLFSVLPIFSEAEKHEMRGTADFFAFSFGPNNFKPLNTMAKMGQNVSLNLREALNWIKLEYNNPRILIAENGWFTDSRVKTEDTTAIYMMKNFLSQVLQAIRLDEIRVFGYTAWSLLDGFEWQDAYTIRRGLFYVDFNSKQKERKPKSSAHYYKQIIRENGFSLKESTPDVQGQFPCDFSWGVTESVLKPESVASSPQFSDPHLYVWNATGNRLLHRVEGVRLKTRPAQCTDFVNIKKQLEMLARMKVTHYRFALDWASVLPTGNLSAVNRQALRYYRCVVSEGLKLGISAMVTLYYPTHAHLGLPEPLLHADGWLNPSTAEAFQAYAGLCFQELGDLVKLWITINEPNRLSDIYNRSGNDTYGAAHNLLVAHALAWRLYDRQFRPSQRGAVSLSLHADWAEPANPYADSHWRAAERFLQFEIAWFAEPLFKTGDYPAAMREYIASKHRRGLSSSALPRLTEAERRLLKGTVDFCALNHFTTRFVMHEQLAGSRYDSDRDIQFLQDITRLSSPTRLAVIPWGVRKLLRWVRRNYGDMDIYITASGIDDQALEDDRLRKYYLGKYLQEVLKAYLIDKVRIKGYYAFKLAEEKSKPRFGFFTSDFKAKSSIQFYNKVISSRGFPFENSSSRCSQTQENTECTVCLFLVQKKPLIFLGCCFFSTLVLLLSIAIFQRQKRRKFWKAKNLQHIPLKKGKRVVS
Measurement Notes: cell-based or functional assay
Report the figure in nM without appending any unit label.

Below, 2 binders whose answers are already recorded.
- Binder: "(D24K) Met-FGF21 (ligand) MHPIPDSSPLLQFGGQVRQRYLYTKDAQQTEAHLEIREDGTVGGAADQSPESLLQLKALKPGVIQILGVKTSRFLCQRPDGALYGSLHFDPEACSFRELLLEDGYNVYQSEAHGLPLHLPGNKSPHRDPAPRGPARFLPLPGLPPALPEPPGILAPQPPDVGSSDPLSMVGPSQGRSPSYAS"
  Endpoint Unit: "nM"
  Measured Value: 6.7
- Binder: "(D102N) Met-FGF21 (ligand) MHPIPDSSPLLQFGGQVRQRYLYTDDAQQTEAHLEIREDGTVGGAADQSPESLLQLKALKPGVIQILGVKTSRFLCQRPDGALYGSLHFDPEACSFRELLLENGYNVYQSEAHGLPLHLPGNKSPHRDPAPRGPARFLPLPGLPPALPEPPGILAPQPPDVGSSDPLSMVGPSQGRSPSYAS"
  Endpoint Unit: "nM"
  Measured Value: 0.7

The measured pERK-HEK293-Beta-klotho without HSA [EC50 (nM)] Median Value associated with [28R, K56R, 59R, 69R, 102T, 121Q, 122R, 168L, 179F, 180E, 181R] Gly-FGF21 derivative of Example 47 (ligand, N-alpha-1-[2-(2-{2-[2-(2-{2-[(S)-4-carboxy-4-(17-carboxy-heptadecanoylamino)-butyrylamino]-ethoxy}-ethoxy)-acetylamino]-ethoxy}-ethoxy)-acetyl] on the N-terminal alpha amino group) GHPIPDSSPLLQFGGQVRQRYLYTDDAQRTEAHLEIREDGTVGGAADQSPESLLQLRALRPGVIQILGVRTSRFLCQRPDGALYGSLHFDPEACSFRELLLETGYNVYQSEAHGLPLHLPGQRSPHRDPAPRGPARFLPLPGLPPALPEPPGILAPQPPDVGSSDPLSLVGPSQGRSPSFER reads 10

Value source: patent US20100216715A1
